# measured target: cyEpCAM ECD Ag0066 (cyno)
# experimental details: SPR multi-cycle

{"columns": ["binder", "Kd, nM"],
 "data": [
  ["Ab1066 (antibody, V domains shown) VH: EVQLVESGGGLVQPGGSLRLSCAASGFTFSNYWMNWVRQAPGKGLEWVAQIRVKSENFATHYADSVKGRFTISRDDSKSTVYLQMNSLRAEDTAVYYCTLYDAFSWGQGTLVTVSS VL: DIQMTQSPSSLSASVGDRVTITCSASSSVSSGNFHWYQQKPGKAPKLLIYRTSNLASGVPSRFSGSGSGTDYTLTISSLQPEDFATYYCQQASGYPYTFGQGTKVEIK", 3],
  ["Ab1019 (antibody, V domains shown) VH: EVQLVESGGGLVQPGGSLRLSCAASGFTFSNYWMNWVRQAPGKGLEWVAQIRVKSENFATHYADSVKGRFTISRDDSKSTVYLQMNSLRAEDTAVYYCTLYDAFSWGQGTLVTVSS VL: DIQMTQSPSSLSASVGDRVTITCSASSSVSSGNFHWYQQKPGKAPKLLIYRTSNLASGVPSRFSGSGSGTDYTLTISSLQPEDFATYYCQQWSGYPYTFGQGTKVEIK", 1.1],
  ["Ab1024 (antibody, V domains shown) VH: EVQLVESGGGLVQPGGSLRLSCAASGFTFSNYWMNWVRQAPGKGLEWVAQIRVKSENFATHYVDSVKGRFTISRDDSKSTVYLQMNSLRAEDTAVYYCTLYDGFSWGQGTLVTVSS VL: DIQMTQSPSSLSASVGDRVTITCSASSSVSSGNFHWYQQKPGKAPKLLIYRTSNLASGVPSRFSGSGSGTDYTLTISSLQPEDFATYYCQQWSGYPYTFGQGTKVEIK", 0.94]
]}
